# Tested on: DMS-273
# ASSAY PROTOCOL: NCI tumour cell line growth inhibition, 48 h
The source made the active and inactive calls. Rule as the data show it: active = GI50 up to about 1.1 µM and inactive = higher.
In this section, each of the compounds is paired with its reported GI50.

Q) Determine from records and report GI50 for COC(=O)CC(=O)OSc1ccccc1
A) 22.7 µM (inactive)

Others:
Q) Supply reported GI50 belonging to this compound: Sc1nnc(C(c2ccccc2)c2ccccc2)[nH]1
A) > 100 µM (inactive)

Q) Give the measured GI50 for O=S(=O)(O)c1cc(O)c2c(O)c(/N=N/c3ccc(/C=C/c4ccc(/N=N/c5c(S(=O)(=O)O)cc6cc(S(=O)(=O)O)cc(O)c6c5O)cc4S(=O)(=O)O)c(S(=O)(=O)O)c3)c(S(=O)(=O)O)cc2c1
A) > 100 µM (inactive)

Q) Input CCCCCCCCOCC(O)COC(=O)CCCCCCC (configuration not stated) , output reported GI50.
A) 44.6 µM (inactive)

Q) Note GI50 for the compound shown: NCc1ccccc1C1CSCSC1
A) > 100 µM (inactive)

Q) Query GI50 for O=C(/C=C/c1ccccc1Cl)c1ccc(Cl)cc1Cl
A) 15.7 µM (inactive)

Q) Entry c1ccc(C2Nc3ccccc3C3OCCCC23)cc1 (configuration not stated) needs its GI50 filled in; supply it.
A) 28.2 µM (inactive)

Q) Retrieve GI50 measured for Cc1nc(O)nc2c1C(NCCCN(C)C)c1cc(Cl)ccc1N2 (configuration not stated) and print it.
A) 12.7 µM (inactive)

Q) Consider the compound c1ccc([P+](CCC[P+](c2ccccc2)(c2ccccc2)c2ccccc2)(c2ccccc2)c2ccccc2)cc1 and give its recorded GI50.
A) 9.91 µM (inactive)

Q) Quickly give me recorded GI50 for CCO/C(CCn1[nH]c(=O)c(Cl)c(Cl)c1=O)=N\NC(=O)C(=O)NN
A) > 100 µM (inactive)
